- System: SB.mhdgc-1
- procedure-summary: viability at highest tested concentration (MAXR) relative to DMSO; higher = less cytotoxic
- condition-label: SB.mhdgc-1 (hereditary c.1380delA CDH1 gastric cancer)
Structures can show the parent of a compound that is named as a salt.
The label true (1) is reserved for viability strictly under 40%; false (0) covers values equal to or above it.

Previously resolved entries follow.
molecule: CNC(=O)c1nn(C)c2c1C(C)(C)Cc1cnc(Nc3ccc(N4CCN(C)CC4)cc3)nc1-2 [Milciclib] (top concentration 46.0829 µM)
discrete-label: false (0)
//
molecule: CC(C)(C)NC(=O)[C@H]1CC[C@H]2[C@@H]3CC[C@H]4NC(=O)\C=C/[C@]4(C)[C@H]3CC[C@]12C [Finasteride] (top concentration 46.0829 µM)
discrete-label: true (1)
//
molecule: CC(C)CC(N(C)C)C1(c2ccc(Cl)cc2)CCC1 (configuration not stated) [Sibutramine hydrochloride] (top concentration 46.0829 µM)
discrete-label: true (1)
//
molecule: Nc1ccccc1NC(=O)c1ccc(CNC(=O)OCc2cccnc2)cc1 [Entinostat] (top concentration 46.0829 µM)
discrete-label: false (0)
//
molecule: CC(C)(Oc1ccc(C2CC2(Cl)Cl)cc1)C(=O)O (configuration not stated) [Ciprofibrate] (top concentration 92.1659 µM)
discrete-label: true (1)
//
molecule: CCCCCCCN(CC)CCCC(O)c1ccc(NS(C)(=O)=O)cc1.CCCCCCCN(CC)CCCC(O)c1ccc(NS(C)(=O)=O)cc1.O=C(O)/C=C/C(=O)O (configuration not stated) [Ibutilide fumarate] (top concentration 46.0829 µM)
discrete-label: true (1)
//
molecule: Cc1ccc2c(c1)c1c(n2CCc2ccc(C)nc2)CCN(C)C1 [Latrepirdine hydrochloride] (top concentration 46.0829 µM)
discrete-label: false (0)
//
molecule: Cc1ccccc1C(C(=O)NC1CCCCC1)N(C(=O)CNc1ccc(C#N)cc1)c1cccc(F)c1 (configuration not stated) [IDH-C227] (top concentration 46.0829 µM)
discrete-label: true (1)
//
molecule: Nc1n[nH]c2nnc(-c3c(-c4ccccc4)nn4ccccc34)cc12 (top concentration 46.0829 µM)
discrete-label: true (1)
//
molecule: Clc1cccc(-n2nnnc2NCc2ccccc2Oc2ccccn2)c1Cl (top concentration 46.0829 µM)
discrete-label: false (0)

Req: Does O=C(O)c1ccc(O)c2ncc(N3CCOCC3)cc12 (top concentration 46.0829 µM) have viability strictly under 40%?
Resp: false (0)

Req: # repeat for Cc1ccc([S+](=O)([O-])OCC(=O)Nc2ccc(C(=O)O)c(O)c2)cc1 [S31-201] (top concentration 46.0829 µM)
Resp: false (0)

---

The reader will find reported viability values listed item by item below.
- System: SB.msgc-1
- procedure-summary: viability at highest tested concentration (MAXR) relative to DMSO; higher = less cytotoxic
- condition-label: SB.msgc-1 (sporadic gastric cancer)
Structures can show the parent of a compound that is named as a salt.

compound: CC(=O)NC[C@H]1CN(c2ccc(N3CCOCC3)c(F)c2)C(=O)O1 [Linezolid] (top concentration 46.0829 µM)
measurement-target: SB.msgc-1
reported: 101%

compound: O=C(C=CC#Cc1cccc(N[S+](=O)([O-])c2ccccc2)c1)NO [Oxamflatin] (top concentration 46.0829 µM)
measurement-target: SB.msgc-1
reported: 9.38%

Kindly consider the entry below.
Req: I have this compound here, NNc1nncc2ccccc12 [Hydralazine hydrochloride] (top concentration 46.0829 µM) , and I need its recorded viability.
Resp: 96.7%
